ASSAY INFO: qHTS RealTime-Glo MT Cell Viability Assay in HEK293 cells - 8 hour (AID 1224887); further: nearly all actives have a fitted effect of over 50% in size; further: potency means the concentration at half of the fitted maximal effect
CONDITION PARAMETERS: RealTime-Glo luminescence; series mostly up to 76.8 µM
Inconclusive results are not listed. Active and inactive are the calls of the source. The call rests on the fitted dose curve; in most records, active means well fitted cell-killing curve with a large enough effect in the repeat runs; inconclusive means weak or mixed curves, or effect the other way; inactive means flat fitted curve, though single readings scatter.
MEASUREMENT TYPE: Potency

Cc1c(N)cccc1C(F)(F)F ... inactive
CN1CCN2c3ccccc3Cc3ccccc3C2C1 (configuration not stated) ... inactive
O=[N+]([O-])c1cccc(C(F)(F)F)c1 ... inactive
COC(=O)c1ccccc1C ... inactive
CCc1cccc(CC)c1NC(=O)CN(CC(=O)O)CC(=O)O ... inactive
CCCC[P+](C)(CCCC)CCCC ... inactive
CCCCCCCC ... inactive
O=[N+]([O-])c1ccc(F)c(Cl)c1 ... inactive
Cc1ccc(C(C)C)cc2c(C)ccc1-2 ... inactive
CC1(C)CC(O)CC(C)(C)N1 ... inactive

For this molecule ( O=C1CCc2ccc(OCCCCN3CCN(c4cccc(Cl)c4Cl)CC3)cc2N1 ), measured Potency is 21.3 µM (active)

Record summary for CC(CCc1ccccc1)NCC(O)c1ccc(O)c(C(N)=O)c1 (configuration not stated) : reported Potency = inactive

The molecule identified as NC(=O)c1cccc([N+](=O)[O-])c1 registered its Potency at inactive

Documented Potency of CC(C)(C)c1ccc(C(O)CCCN2CCC(C(O)(c3ccccc3)c3ccccc3)CC2)cc1 (configuration not stated) : 8.49 µM (active)

Reported Potency for COc1ccc(NC(=O)CC(C)=O)cc1 was inactive

// Potency lookup, molecule = C=CC(=O)Nc1cc2c(Nc3ccc(F)c(Cl)c3)ncnc2cc1OCCCN1CCOCC1 , result: 9.52 µM (active)

The reported value for CC(C)(C)NSc1nc2ccccc2s1 in terms of Potency is inactive

Quick note, Potency for Oc1c(I)cc(Cl)c2cccnc12 landed at inactive

Sample c1ccc(SSc2ccccc2)cc1 ; Potency observed: inactive

Form field Potency, entry CNc1ccc([N+](=O)[O-])cc1 : inactive

For record C=CC(C)(CCC=C(C)C)OC=O (configuration not stated) the listed Potency is inactive

Given item CC1(C)CCC[C@]2(C)[C@H]3CCO[C@]3(C)CC[C@@H]12 , the value recorded as its Potency is inactive

###

ASSAY TARGET: Progesterone receptor (Homo sapiens)
ASSAY INFO: qHTS assay to identify small molecule antagonists of the progesterone receptor (PR) signaling pathway (AID 1346795)
CONDITION PARAMETERS: PR-UAS-bla HEK293T, beta-lactamase FRET ratio, 16 h; series mostly up to 92.4 µM
Records with an inconclusive call do not appear. The source made the active and inactive calls. Calls follow the shape of the dose curve; as a rule, active = well fitted inhibition curve with a large enough effect in the signal ratio in the repeat runs (not every such curve was filed as active); inconclusive = weak or mixed curves; inactive = flat fitted curve, though single readings scatter; the % refers to the signal ratio.
Would you mind answering with one of these outcomes? active, inactive

c1cnccn1 ... inactive
COC(=O)c1ccccc1OC ... inactive
CCCCCC/C=C\CCCCCCCC(=O)O ... inactive
Cc1c(C)c2c(c(C)c1OC(=O)c1cccnc1)CC[C@@](C)(CCC[C@H](C)CCC[C@H](C)CCCC(C)C)O2 ... inactive

Exercise: Recorded test call requested for COC(C)=O
Key: inactive

Exercise: Dear all, I need the recorded test outcome for Cc1c(F)c(N2CCNC(C)C2)cc2c1c(=O)c(C(=O)O)cn2C1CC1 (configuration not stated) , thank you.
Key: inactive

Exercise: Tell me the assay call for O=c1[nH]c2ccccc2n1CCCN1CCN(C(c2ccccc2)c2ccccc2)CC1 please.
Key: active

###

ASSAY INFO: qHTS assay to identify small molecule antagonists of the glucocorticoid receptor (GR) signaling pathway - cell viability counter screen (AID 720693); further: nearly all actives have a fitted effect of over 55% in size
CONDITION PARAMETERS: GR-bla HeLa viability, CellTiter-Glo luminescence, 18 h, with 5 nM dexamethasone present; series mostly up to 58.5 µM
Records with an inconclusive call do not appear. The source made the active and inactive calls. Calls come from the whole dose curve; as a rule, active = well fitted cell-killing curve with a large enough effect in the repeat runs; inconclusive = weak or mixed curves, or effect the other way; inactive = no such curve, though single readings can be large or run the other way.
The reply should name one outcome from active, inactive

Below are worked cases with known answers.
NC[C@H]1O[C@H](O[C@H]2[C@H](O[C@@H]3O[C@H](CO)[C@@H](O)[C@H]3O)C(O)[C@H](N)C[C@@H]2N)[C@H](N)[C@@H](O)[C@@H]1O (stereo not given in full) ... inactive
Cc1cc(-n2nc3ccc(Cl)cc3n2)c(O)c(C(C)(C)C)c1 ... inactive
NC(=O)c1cccc([N+](=O)[O-])c1 ... inactive
CC(C(=O)O)c1ccc2c(c1)[nH]c1ccc(Cl)cc12 (stereo not given) ... inactive
CN1CCC[C@@H]1CCO[C@](C)(c1ccccc1)c1ccc(Cl)cc1 ... inactive
C=CCn1c(=O)n(CC=C)c(=O)n(CC=C)c1=O ... inactive

Exercise: Recorded test outcome, item O=C(/C=C/c1ccc(O)c(O)c1)O[C@@H](C(=O)O)[C@@H](OC(=O)/C=C/c1ccc(O)c(O)c1)C(=O)O
Key: inactive

Exercise: # lookup: test call for O=C(O)c1cc(N=Nc2ccc([N+](=O)[O-])cc2)ccc1O
Key: active

Exercise: Outcome? C=C(C)c1cccc(C(=C)C)c1
Key: inactive

Exercise: Hi team, can someone confirm the assay call for Cc1ccc(C)cc1 ?
Key: inactive

###

ASSAY INFO: qHTS assay to identify small molecule antagonists of the estrogen receptor alpha (ER-alpha) signaling pathway using the BG1 cell line (AID 743080);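 further: BG1 cells stimulated with 17beta-estradiol alongside compound; nearly all actives have a fitted effect of over 25% in size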
CONDITION PARAMETERS: BG1Luc4E2 ERE-luciferase antagonist mode, luminescence; series mostly up to 70.3 µM
Inconclusive results are not listed. Calls of active or inactive are those of the source. The call rests on the fitted dose curve.
Respond with a class label; see TRUE (active), FALSE (inactive)

O[C@@H]([C@H](O)[C@H](O)CBr)[C@H](O)CBr ... FALSE

Now for another entry.
Exercise: # lookup: test call for CC(=O)CC(=O)Nc1ccc(S(=O)(=O)O)cc1
Key: FALSE

###

ASSAY INFO: qHTS assay to identify small molecule antagonists of the vitamin D receptor (VDR) signaling pathway - cell viability counter screen (AID 743225); further: nearly all actives have a fitted effect of over 50% in size
CONDITION PARAMETERS: VDR-bla HEK293T viability, CellTiter-Glo luminescence, 16 h; series mostly up to 61 µM
Records with an inconclusive call do not appear. Active and inactive are the calls of the source. Calls come from the whole dose curve; as a rule, active = well fitted cell-killing curve with a large enough effect in the repeat runs; inconclusive = weak or mixed curves, or effect the other way; inactive = no such curve, though single readings can be large or run the other way.
Respond only with the outcome that fits, drawn from active, inactive

Some entries whose results are on file:
Nc1ccc(NCCO)c([N+](=O)[O-])c1 ... inactive
O=C(c1ccc(O)c(O)c1)c1ccc(O)cc1O ... inactive

Exercise: Identify the outcome logged in this assay for the compound shown: Cc1cccc2cccnc12
Key: inactive

Exercise: Just curious, what result did O=C1OC2(c3ccc(O)cc3Oc3cc(O)ccc32)c2ccc(N=C=S)cc21 get here?
Key: inactive

###

ASSAY INFO: A CellTox Green Cytotoxicity Assay to monitor cytotoxicity in HEK293 cells - 16 hour (AID 1224888); further: nearly all actives have a fitted effect of over 35% in size
CONDITION PARAMETERS: CellTox Green fluorescence; series mostly up to 76.8 µM
Excerpt: National Center for Advancing Translational Sciences [NCATS] NIH Chemical Genomics Center [NCGC] U.S. Environmental Protection Agency [EPA] National Institutes of Environmental Health Sciences [NIEHS] National Toxicology Program [NTP] Cell-based models are critical for drug discovery. […] Viable cells produce no appreciable increases in fluorescence. Therefore, the fluorescence signal produced by the binding interaction with dead cell DNA is proportional to cytotoxicity. […]
Inconclusive results are not listed. The source made the active and inactive calls. The call rests on the fitted dose curve; in most records, active means well fitted activation curve with a large enough effect in the repeat runs; inconclusive means weak or mixed curves; inactive means flat fitted curve, though single readings scatter.
Use one of these outcomes when replying: active, inactive

Known results for compounds:
Clc1ccnc(Cl)n1 ... inactive
CC1(C)[C@@H](O)CC[C@]2(C)[C@H]3C(=O)C=C4[C@@H]5C[C@@](C)(C(=O)O)CC[C@]5(C)CC[C@@]4(C)[C@]3(C)CC[C@@H]12 ... inactive
Cc1cc(C)c(/C=C2\C(=O)Nc3ccccc32)[nH]1 ... active
CCCCCc1ccc(Cl)cc1 ... inactive
CC(=O)[C@H]1CC[C@H]2[C@@H]3CCC4=CC(=O)CC[C@]4(C)[C@H]3CC[C@]12C ... inactive

Exercise: Hi team, can someone confirm the assay call for C1CCC(SSC2CCCCC2)CC1 ?
Key: inactive

Exercise: Hi, sorry to bother you, what did the test record for COc1cc(C)ccc1O ?
Key: inactive

Exercise: Record lookup: outcome of this test for C=Cc1ccccc1C=C ?
Key: inactive

Exercise: What is the recorded call for this compound in the test? Oc1c(I)cc(Cl)c2cccnc12
Key: inactive

Exercise: Tell me the assay call for CC(C)(c1cc(Br)c(OCC(Br)CBr)c(Br)c1)c1cc(Br)c(OCC(Br)CBr)c(Br)c1 (stereo not given) please.
Key: inactive

###

ASSAY INFO: qHTS assay to identify small molecule antagonists of the estrogen related receptor signaling pathway with the pleiotropic PPARgamma coactivator (PGC) from Tox21 10K library (AID 1224841); further: actives are mostly falling curves and most rising ones were filed inactive; nearly all actives have a fitted effect of over 50% in size
CONDITION PARAMETERS: PGC/ERR reporter cell line, ONE-Glo luciferase, 18 h; series mostly up to 92.4 µM
Results filed as inconclusive are left out. The source made the active and inactive calls. No rule for the calls is given here.
Form entry, call: pick from active, inactive

These recorded examples may help you get a feel for the data.
Cc1c(N)cccc1C(F)(F)F ... inactive
C=CC(=O)Nc1cc2c(Nc3ccc(F)c(Cl)c3)ncnc2cc1OCCCN1CCOCC1 ... inactive
Cc1cccc(C(=O)O)c1O ... inactive

Exercise: State the result this test recorded for O=C(Nc1ccc2c(O)c(N=Nc3ccc(N=Nc4ccc(S(=O)(=O)O)cc4)cc3)c(S(=O)(=O)O)cc2c1)c1ccccc1 .
Key: active

Exercise: Status in this test for OCCN1CCN(CCCN2c3ccccc3Sc3ccc(C(F)(F)F)cc32)CC1 ?
Key: inactive

Exercise: Per the records of this test, what outcome belongs to CCCCCCCC/C=C\CCCCCCCCN ?
Key: inactive

Exercise: What did this assay record as the result for CC(=O)Oc1cc2c(s1)CCN(C(C(=O)C1CC1)c1ccccc1F)C2 (configuration not stated) ?
Key: inactive

Exercise: Query: recorded result category for Nc1ccc(NCCO)c([N+](=O)[O-])c1 in this test
Key: inactive

Exercise: What did this assay record as the result for Cc1c(C)c2c(c(C)c1OC(=O)c1cccnc1)CC[C@@](C)(CCC[C@H](C)CCC[C@H](C)CCCC(C)C)O2 ?
Key: inactive

Exercise: What was the test verdict on CCCCN(CCCC)CC(O)c1cc(Cl)cc2c1-c1ccc(Cl)cc1/C2=C/c1ccc(Cl)cc1 (configuration not stated) ?
Key: inactive

Exercise: Assay result, entry OC[C@@H](O)[C@@H](O)CO — outcome?
Key: inactive

Exercise: Per the records of this test, what outcome belongs to C1CCC(SSC2CCCCC2)CC1 ?
Key: inactive
